# Tested on: VSE775
# Experiment summary: MIC, microdilution broth method
# Assay type: cell-based, Enterococcus faecalis
# Condition parameters: VSE775; in µg/mL
The molecules listed here are annotated with their MIC.

Lookup: # get_value(readout='MIC', item= `CCn1cc(C(=O)O)c(=O)c2cc(F)c(N3CCN(Cc4ccc(-n5cccc5)cc4)CC3)cc21` )
Found: 4-8

Lookup: # get_value(readout='MIC', item= `C[C@H]1COc2c(N3CCN(Cc4cccc5ccccc45)CC3)c(F)cc3c(=O)c(C(=O)O)cn1c23` )
Found: 1-2

Lookup: # get_value(readout='MIC', item= `COCc1ccc(CN2CCN(c3cc4c(cc3F)c(=O)c(C(=O)O)cn4C3CC3)CC2)cc1` )
Found: 1-2

Lookup: # get_value(readout='MIC', item= `O=C(O)c1cn(C2CC2)c2cc(N3CCN(Cc4ccccc4)CC3)c(F)cc2c1=O` )
Found: 2-4
